List of IC50 values.
- System: HCT-116
- protocol-summary: MTT cytotoxicity assay, colon cancer cells
- Type: cell-based, human
- condition-summary: Homo sapiens, HCT-116; MTT, 48 hrs incubation; read-out: HCT-116 (IC50% μM)
Output spec: scalar in µM, unitless text.

Illustrative cases are given below, each with its answer.
| compound | unit-tag | IC50 |
| --- | --- | --- |
| O=C(/C=C/c1ccc2ccccc2c1)[C@H]1[C@H](c2ccc3ccccc3c2)[C@H]2CSCN2[C@]12C(=O)Nc1ccccc12 [Compound 4i] | µM | 8 |
| O=C(/C=C/c1ccc(Cl)cc1)[C@H]1[C@H](c2ccc(Cl)cc2)[C@H]2CSCN2[C@]12C(=O)Nc1ccccc12 [Compound 4c] | µM | 3 |
| Cc1ccc(/C=C/C(=O)[C@H]2[C@H](c3ccc(C)cc3)[C@H]3CSCN3[C@]23C(=O)Nc2ccccc23)cc1 [Compound 4b] | µM | 8 |
| O=C(/C=C/c1c(Cl)cccc1Cl)[C@H]1[C@H](c2c(Cl)cccc2Cl)[C@H]2CSCN2[C@]12C(=O)Nc1ccccc12 [Compound 4e] | µM | 3 |
| COc1ccc(/C=C/C(=O)[C@H]2[C@H](c3ccc(OC)cc3)[C@H]3CSCN3[C@]23C(=O)Nc2ccccc23)cc1 [Compound 4h] | µM | 7 |

Report IC50 for O=C(/C=C/c1ccc(Br)cc1)[C@H]1[C@H](c2ccc(Br)cc2)[C@H]2CSCN2[C@]12C(=O)Nc1ccccc12 [Compound 4f] please. 3

Record request: IC50 value, item O=C(/C=C/c1ccc(Cl)cc1Cl)[C@H]1[C@H](c2ccc(Cl)cc2Cl)[C@H]2CSCN2[C@]12C(=O)Nc1ccccc12 [Compound 4d] 1.4

What value of IC50 has been recorded for this entry: O=C(/C=C/c1cccc(Br)c1)[C@H]1[C@H](c2cccc(Br)c2)[C@H]2CSCN2[C@]12C(=O)Nc1ccccc12 [Compound 4l] 1.57

May I ask what IC50 has been recorded for O=C(/C=C/c1ccc(C(F)(F)F)cc1)[C@H]1[C@H](c2ccc(C(F)(F)F)cc2)[C@H]2CSCN2[C@]12C(=O)Nc1ccccc12 [Compound 4n] ? 2.9

Could you tell me which IC50 is on file for O=C(/C=C/c1ccc(F)cc1)[C@H]1[C@H](c2ccc(F)cc2)[C@H]2CSCN2[C@]12C(=O)Nc1ccccc12 [Compound 4m] ? 5

Param item = O=C(/C=C/c1ccc(F)cc1)[C@H]1[C@H](c2ccc(F)cc2)[C@H]2CSCN2[C@]12C(=O)Nc1ccc(Br)cc12 [Compound 4p] ; retrieve measured IC50. 3.5

----------
- System: HCT-116
- protocol-summary: MTT cytotoxicity assay, colon cancer cells
- Assay type: cell-based, human
- condition-summary: Selectivity Index from IC50 normal (VERO-B) and IC50 cancer (HCT-116)
# key: entry, value: SI
Please state the value as a number alone, without comment.

Study these solved cases before continuing.
| compound | reading |
| --- | --- |
| O=C(/C=C/c1ccc(C(F)(F)F)cc1)[C@H]1[C@H](c2ccc(C(F)(F)F)cc2)[C@H]2CSCN2[C@]12C(=O)Nc1ccccc12 [Compound 4n] | 0.8621 |
| O=C(/C=C/c1ccco1)[C@H]1[C@H](c2ccco2)[C@H]2CSCN2[C@]12C(=O)Nc1ccccc12 [Compound 4k] | 1.316 |

Below: the item to evaluate.
Give its SI value. Item: O=C(/C=C/c1ccc(Br)cc1)[C@H]1[C@H](c2ccc(Br)cc2)[C@H]2CSCN2[C@]12C(=O)Nc1ccccc12 [Compound 4f] 1
